From: ChEMBL document CHEMBL1800057

- experimental system: Nitric oxide synthase 3 (Homo sapiens, UniProt P29474)
- Sequence (P29474 whole entry): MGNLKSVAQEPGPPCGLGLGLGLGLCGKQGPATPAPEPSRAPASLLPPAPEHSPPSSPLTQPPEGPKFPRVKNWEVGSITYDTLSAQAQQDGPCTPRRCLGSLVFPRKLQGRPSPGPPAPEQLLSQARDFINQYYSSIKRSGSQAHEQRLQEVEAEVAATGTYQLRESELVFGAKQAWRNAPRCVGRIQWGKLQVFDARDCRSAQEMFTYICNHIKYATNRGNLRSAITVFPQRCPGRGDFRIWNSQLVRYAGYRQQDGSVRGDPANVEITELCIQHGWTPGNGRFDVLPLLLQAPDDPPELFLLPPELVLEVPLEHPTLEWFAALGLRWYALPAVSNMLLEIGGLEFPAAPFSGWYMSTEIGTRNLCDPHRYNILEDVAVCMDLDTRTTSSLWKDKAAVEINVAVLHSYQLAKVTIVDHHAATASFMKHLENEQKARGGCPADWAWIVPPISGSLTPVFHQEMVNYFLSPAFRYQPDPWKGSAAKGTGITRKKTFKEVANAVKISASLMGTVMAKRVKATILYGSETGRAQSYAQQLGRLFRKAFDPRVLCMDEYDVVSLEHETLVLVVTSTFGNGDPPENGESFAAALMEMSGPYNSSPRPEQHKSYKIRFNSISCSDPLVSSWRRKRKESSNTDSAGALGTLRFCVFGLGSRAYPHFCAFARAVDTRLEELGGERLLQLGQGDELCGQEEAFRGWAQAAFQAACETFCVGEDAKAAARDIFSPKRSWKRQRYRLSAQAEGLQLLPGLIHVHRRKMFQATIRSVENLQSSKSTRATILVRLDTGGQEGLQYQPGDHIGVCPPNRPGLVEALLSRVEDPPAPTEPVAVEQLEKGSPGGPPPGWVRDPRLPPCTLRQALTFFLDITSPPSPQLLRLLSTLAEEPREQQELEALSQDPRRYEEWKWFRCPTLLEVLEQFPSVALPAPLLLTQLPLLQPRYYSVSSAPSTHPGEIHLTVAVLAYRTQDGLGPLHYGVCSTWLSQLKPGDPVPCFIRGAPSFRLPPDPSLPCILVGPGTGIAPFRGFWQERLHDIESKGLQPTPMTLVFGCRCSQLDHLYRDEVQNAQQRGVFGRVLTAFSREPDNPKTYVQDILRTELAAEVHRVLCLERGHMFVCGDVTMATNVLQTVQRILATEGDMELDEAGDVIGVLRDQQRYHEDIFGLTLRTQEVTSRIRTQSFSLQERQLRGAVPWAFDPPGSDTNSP
- assay details: Inhibition of human eNOS expressed in HEK293 cells assessed as inhibition A23187 induced nitric oxide production incubated for 24 hrs measured after 18 hrs of […] challenge using 2,3-diaminonaphthalene by fluorescence assay
A collection of compounds and their measured EC50
measured attribute: EC50 (µM)

| chemical string | measured attribute | endpoint result |
| --- | --- | --- |
| CC(C)c1nc2ccccc2n1Cc1cc(=O)[nH]c2c(F)c(F)ccc12 | EC50 | 11.3 |
| O=c1cc(Cn2c(C3CC(F)(F)C3)nc3nccnc32)c2ccc(F)c(F)c2[nH]1 | EC50 | 9.2 |
| CC(C)Cc1nc2nccnc2n1Cc1cc(=O)[nH]c2c(F)c(F)ccc12 | EC50 | 39 |
| Cn1cncc1-c1nc2ccccc2n1Cc1cc(=O)[nH]c2c(F)c(F)ccc12 | EC50 | 5.8 |
| CCc1nc2ccccc2n1Cc1cc(=O)[nH]c2c(F)c(F)ccc12 | EC50 | 1.6 |
| O=c1cc(Cn2c(CC3CCC3)nc3ccccc32)c2ccc(F)c(F)c2[nH]1 | EC50 | 2.9 |
| O=c1cc(Cn2c(C3CC3)nc3ccccc32)c2ccc(F)c(F)c2[nH]1 | EC50 | 6.8 |
| CC(C)c1nc2nccnc2n1Cc1cc(=O)[nH]c2c(F)c(F)ccc12 | EC50 | 13 |
